Experiment: protein stability index of a GFP-peptide fusion (yeast GPS) (PSI 1-4); higher = more stable; sorted into four equal gates, so the index is relative within each strain
Conditions: san1∆
If the reported protein stability index equals or exceeds 2, assign satisfied. If not, assign not satisfied.

Solved cases (4 shown):
[[record]]
sequence_input = "YPDLCSIYDKWTDPNLK [RPN1]"
class_name = "satisfied"

[[record]]
sequence_input = "IVGKKIQEFLVVIEKRR [GRR1]"
class_name = "satisfied"

[[record]]
sequence_input = "AVDHRRQNRNQEIFDAN [RPL13A]"
class_name = "satisfied"

[[record]]
sequence_input = "SNTSTSKMLDAASSQVS [SNF12]"
class_name = "satisfied"


Test whether the sequence EAARICANKYMTTVSGR [RPL10] records protein stability index of 2 or higher.
not satisfied

Reported protein stability index reaches at least 2 for IEEHPTVVDAIDNSDEI [IRR1] ?
satisfied

Does the reported protein stability index for NQINSFWSLHSSTYYNL [NUT1] fall at or above the 2 mark?
not satisfied

Reported protein stability index reaches at least 2 for MLKQHLFKYQGHIGAYL [PUP1] ?
satisfied

Please indicate if the recorded protein stability index for QNNEQNPIDPFNIIREF [YDL116W/NUP84] meets or exceeds 2.
satisfied

I'd appreciate it if you could say whether KKVASANATAAESDVAK [RPL16A] has protein stability index at least equal to 2.
satisfied

Assess whether reported protein stability index for SNLKISLVKYPELLDSL [SWI1] sits at 2 or higher.
satisfied

Say whether IDQVNELVTISWVQPRI [RPN9] shows protein stability index of 2 or more.
satisfied

Given the entry VVDFLKRNGSTLEQKVN [FAS1] , answer whether its protein stability index meets or surpasses 2.
satisfied

Is reported protein stability index greater than or equal to 2 here: KKFIEISDVKIQVAAFI [PRP8]
satisfied

Form field: protein stability index at least 2? Entry: IDFTLLNRLLRLIVDPN [PRP8]
not satisfied

protein stability index >= 2 for SWNLTGTILSSAGDDGK [YGL100W/SEH1] ?
satisfied

Given the entry KESEISHNENKMDFSSK [YIL149C/MLP2] , answer whether its protein stability index meets or surpasses 2.
satisfied

Say whether SHKTTKEDTVSWFKQKY [RPL11A] shows protein stability index of 2 or more.
not satisfied

protein stability index >= 2 for YMEKGTQLDDLQHELMI [YML103C/NUP188] ?
satisfied

Decide: is the reported value of protein stability index for RPNLPTHNFKLSGVSNS [RGR1] equal to or greater than 2?
not satisfied

Determine whether measured protein stability index meets or exceeds 2 for LPEQLKSGKFCSHCGCV [SNM1]
satisfied

---

Assay: protein stability index of a GFP-peptide fusion (yeast GPS) (PSI 1-4); higher = more stable; sorted into four equal gates, so the index is relative within each strain
Details: doa10∆
measured_endpoint: protein stability index
Could you keep your reply to the number by itself?

Worked cases, protein stability index given:
[[record]]
sequence_input = "EYMKRHPTTIESLREIP [SEC65]"
measured_endpoint = "protein stability index"
numeric_readout = 3.25

[[record]]
sequence_input = "IIKKDEVVKRYLKMRQD [PUP3]"
measured_endpoint = "protein stability index"
numeric_readout = 3.66

[[record]]
sequence_input = "RTKTPGPGGQAALRALA [RPS14B]"
measured_endpoint = "protein stability index"
numeric_readout = 2.39


The value of protein stability index measured for the sequence TKIIMATNRPDTLDPAL [RPT4] turned out to be 2.98

Sure, the documented protein stability index for TYKYPSLKGVDPKFRRN [RPL29] is 3.03

Noted for TQQPGTNSHYNNTNTDN [SNF2] : its protein stability index reads 3.17

Recorded result, NQNTLKEISARRYKLLT [POP1] , protein stability index: 2.13

Notebook: RPDGVHVINVGKTWEKL [RPS0A] , protein stability index read as 3.33

Record IGQLIGEVMKELSEEKY [RPT4] , field protein stability index: 3.27

Summary for this sequence, ALDFRNVSIVANYIKER [SMC4] : protein stability index is 1.51

get_value(item= RCGRRSFHVQKKTCSSC [RPL37A] , readout=protein stability index) returns 2.3

---

Assay: protein stability index of a GFP-peptide fusion (yeast GPS) (PSI 1-4); higher = more stable; sorted into four equal gates, so the index is relative within each strain
Conditions: ubr1∆
measured_endpoint: protein stability index
Reply with just the number.

Recorded protein stability index, per entry:
[[record]]
sequence_input = "DQFRDVEITFGKEFGDV [RRP45]"
numeric_readout = 3.18

[[record]]
sequence_input = "TSFGQPQSAPNQMGMGT [YOR098C/NUP1]"
numeric_readout = 2.41

[[record]]
sequence_input = "TTQIDLFRIFSMSEEFK [BRR2]"
numeric_readout = 3.12

[[record]]
sequence_input = "KIALREYINNCKKNTKK [POP4]"
numeric_readout = 2.89


Please find the next sequence below.
Record PRVIEPVYTAQWSATWI [PRP8] . Reported protein stability index: 2.13

---

Test: protein stability index of a GFP-peptide fusion (yeast GPS) (PSI 1-4); higher = more stable; sorted into four equal gates, so the index is relative within each strain
Conditions: ubr1∆
Measured protein stability index accompanies every entry in the list below.

[[record]]
sequence_input = "TGALINNLEPRQTTSNT [RPN11]"
result = 3.02

[[record]]
sequence_input = "EVKEQLGILKKKRFDEF [SMC4]"
result = 3.03

[[record]]
sequence_input = "LGKWYSKEDYETLKRDR [ARP7]"
result = 2.95


For record EILNECHDELKALPMLE [MED4] the listed protein stability index is 3.09

---

Test: protein stability index of a GFP-peptide fusion (yeast GPS) (PSI 1-4); higher = more stable; sorted into four equal gates, so the index is relative within each strain
Conditions: ubr1∆
Reported protein stability index values for the following sequences.
Answer field: number only, no words.

[[record]]
sequence_input = "IPMSKTIKDLVGGKSTV [FAS2]"
numeric_readout = 3.04

[[record]]
sequence_input = "SWNLTGTILSSAGDDGK [YGL100W/SEH1]"
numeric_readout = 2.98

[[record]]
sequence_input = "SNTIDELSTDIILKTRQ [SRB7]"
numeric_readout = 3.03

[[record]]
sequence_input = "EVYTKTIEVLDEVITEG [POP7]"
numeric_readout = 3.03

[[record]]
sequence_input = "GSLNATNFSPTPANNGE [SNF2]"
numeric_readout = 3.04

[[record]]
sequence_input = "HTPTIASYLTPLLEAKK [SSN2]"
numeric_readout = 3.07

[[record]]
sequence_input = "RVARRNAARKAEASGEA [RPS9A]"
numeric_readout = 3

[[record]]
sequence_input = "EILVLYNVCDTSKSLVK [SIN4]"
numeric_readout = 2.97

[[record]]
sequence_input = "EEEDSILSLEQSSRVVS [YCS4]"
numeric_readout = 3.06

[[record]]
sequence_input = "DENGTNSAIANEQEEKS [RPC37]"
numeric_readout = 3.07


Lab book: protein stability index of KKHTKKFKRHHSDRYHR [RPL32] noted as 2.97

protein stability index measured on RNVGKTLVNKSTGLKSA [RPS1A] = 2.96

So for APPQRPRFNRENKVSPA [RPS26A] , the logged protein stability index turned out to be 2.95

---

Assay: protein stability index of a GFP-peptide fusion (yeast GPS) (PSI 1-4); higher = more stable; sorted into four equal gates, so the index is relative within each strain
Details: ubr1∆
measured_endpoint: protein stability index
Keep it simple and answer with nothing but the number.

Use the examples below as a reference point.
[[record]]
sequence_input = "HLSYCSNLTIYPIYELL [GRR1]"
numeric_readout = 3.06

[[record]]
sequence_input = "TEDVRLAPELNQAIWKR [RPL31B]"
numeric_readout = 3.08


What the record says about LTFVSVDEELGPSIYKT [SCL1] : protein stability index is 2.99

---

Experiment: protein stability index of a GFP-peptide fusion (yeast GPS) (PSI 1-4); higher = more stable; sorted into four equal gates, so the index is relative within each strain
Details: doa10∆
Item-by-item account of protein stability index
Please reply with the number alone, leaving off any unit.

Field: example entries. Status: answers known.
[[record]]
sequence_input = "RDYSKEILGINLANEQP [SIR4]"
numeric_readout = 2.71

[[record]]
sequence_input = "SSLVRSCGEEEFFSTNW [REC8]"
numeric_readout = 3.49

[[record]]
sequence_input = "KADIGKPGRMPFNFTVT [CDC53]"
numeric_readout = 2.33


Pending sequence:
// protein stability index value for FDPFQAVSRSMTDIWNT [ECM29] : 2.81

---

Test: protein stability index of a GFP-peptide fusion (yeast GPS) (PSI 1-4); higher = more stable; sorted into four equal gates, so the index is relative within each strain
Details: ubr1∆
Label y when protein stability index >= 3; otherwise n.

Examples from the recorded data:
[[record]]
sequence_input = "PSYTHVLISKLSCEKIT [RRI1]"
class_name = "n"

[[record]]
sequence_input = "TTVFFSRQKSGLFDSFT [YML031W/NDC1]"
class_name = "n"

[[record]]
sequence_input = "PRFNRENKVSPADAAKK [RPS26A]"
class_name = "n"

[[record]]
sequence_input = "TTPEKPEETPLEELAET [FAS2]"
class_name = "y"

[[record]]
sequence_input = "LISLIMTTWRKLYTKEL [YMR129W/POM152]"
class_name = "n"

[[record]]
sequence_input = "QTYGETTAVDALQKGLK [RPC19]"
class_name = "n"


In plain terms: is recorded protein stability index at least 3 for ASLKHDNETKAMLINLI [RPN3] ?
n

Item LKKANIIYHTTFSWLNA [YLR018C/POM34] with protein stability index of 3 or above?
n

Dear colleague, could you confirm whether NASGNKRSGVIETVDDK [ITC1] has protein stability index at or above 3?
n

In plain terms: is recorded protein stability index at least 3 for TGLLIARRTLQKLGLDE [RPL5] ?
y

Form field: protein stability index at least 3? Entry: NVVNYLSINKNFINQED [RPC17]
n

Can VVPDLGHLNGHTPTIAS [SSN2] be said to have protein stability index at or above 3?
n

Can KILQKRSISKELIVSEE [SIR3] be said to have protein stability index at or above 3?
n

Is it the case that KVLINDQLSTISMILRN [SWI1] has protein stability index reaching or exceeding 3?
n

# bool: protein stability index of LVTQHKAKYNTPKYRLV [RPL5] >= 3
n

Quick check: does LRSRLQQQQQQQQQTSP [SNF5] have protein stability index greater than or equal to 3?
n

Could you please find out whether SQRAQVVTMSVKSVNDP [RPC37] has protein stability index that meets 3 or exceeds it?
n

Textbook exercise: given the entry NQLVEPNRIKLSKEVPF [SRB5] , state whether its protein stability index is greater than or equal to 3.
n

FYI, the data here is from the supplement of paper PMC9732359.
